Each entry below carries its measured pIC50, system: FLT-3 (Homo sapiens (Human), UniProt P36888).
Sequence (P36888 27-993): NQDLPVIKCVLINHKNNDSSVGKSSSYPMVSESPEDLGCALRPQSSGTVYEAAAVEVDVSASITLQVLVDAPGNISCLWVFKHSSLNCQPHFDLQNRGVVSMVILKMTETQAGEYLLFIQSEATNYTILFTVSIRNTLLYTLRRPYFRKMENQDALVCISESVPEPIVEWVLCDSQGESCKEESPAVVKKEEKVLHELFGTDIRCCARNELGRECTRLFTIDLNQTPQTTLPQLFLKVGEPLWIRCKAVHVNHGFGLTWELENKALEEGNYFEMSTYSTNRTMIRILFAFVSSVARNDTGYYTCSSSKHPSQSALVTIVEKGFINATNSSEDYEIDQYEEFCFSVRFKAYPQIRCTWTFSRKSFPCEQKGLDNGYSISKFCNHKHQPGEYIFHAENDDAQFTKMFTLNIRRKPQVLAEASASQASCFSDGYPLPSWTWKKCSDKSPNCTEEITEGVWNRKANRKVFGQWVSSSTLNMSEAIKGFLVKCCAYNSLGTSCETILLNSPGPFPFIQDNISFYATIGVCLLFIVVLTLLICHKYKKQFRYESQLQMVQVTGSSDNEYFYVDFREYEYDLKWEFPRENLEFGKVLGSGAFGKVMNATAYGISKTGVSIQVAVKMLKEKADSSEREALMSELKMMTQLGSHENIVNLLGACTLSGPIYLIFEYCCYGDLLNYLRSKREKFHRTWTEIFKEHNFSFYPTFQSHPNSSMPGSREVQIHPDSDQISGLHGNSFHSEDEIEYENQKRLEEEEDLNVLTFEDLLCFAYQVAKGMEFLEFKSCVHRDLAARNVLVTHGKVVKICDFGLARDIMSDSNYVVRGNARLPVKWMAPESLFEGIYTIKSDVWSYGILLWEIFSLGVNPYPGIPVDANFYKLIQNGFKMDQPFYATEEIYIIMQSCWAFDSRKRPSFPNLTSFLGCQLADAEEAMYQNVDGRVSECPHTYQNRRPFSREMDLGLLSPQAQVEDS
One number for each entry, as −log10 of the molar value.

Molecule: COc1cc(C2=C(c3c[nH]c4ccccc34)C(=O)NC2=O)cc(OC)c1OC
pIC50: 6.57

Now let's try a different one.
// map COc1cc(C2=C(c3cn(CCCOC(=O)C(N)CC(C)C)c4ccccc34)C(=O)NC2=O)cc(OC)c1OC (centres unmarked) to recorded pIC50 (system: FLT-3 (Homo sapiens (Human), UniProt P36888))
6.32

Taken from patent US8957103B2.
